# study_system: T1, membrane-bound B Lymphocyte Stimulator on U937 plasma membrane preparations (human, UniProt Q9Y275 1-285)
# T1 construct: Natural protein in plasma membrane fractions of the human cell line U937 coated on ELISA plates; also called U937 plasma membranes; U937 membranes
# T1 sequence (Q9Y275 whole entry): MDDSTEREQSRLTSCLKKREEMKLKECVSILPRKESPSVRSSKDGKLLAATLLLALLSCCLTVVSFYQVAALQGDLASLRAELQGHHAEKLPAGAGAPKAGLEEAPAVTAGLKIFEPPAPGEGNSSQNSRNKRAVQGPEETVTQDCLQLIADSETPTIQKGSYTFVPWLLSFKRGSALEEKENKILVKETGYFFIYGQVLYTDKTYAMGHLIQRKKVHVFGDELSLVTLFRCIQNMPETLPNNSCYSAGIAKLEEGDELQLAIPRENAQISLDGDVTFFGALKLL
# assay_summary: phage ELISA
reported_property: binding result

INSERT INTO measurements (binder, value_measured) VALUES
  ('I037E07 (scFv) scFv: QVQLVQSGAEVKKPGASVKVSCKASGYTFTNYGITWVRQAPGQGLEWMGWISAYNGNRNYAQKLQGRVTMTTDTSTSTAYMELRSLRSDDTAVYYCVRDGIDILLVPAALMDVWGRGTMVTVSSGGGGSGGGGSGGGGSQSVLTQPASVSGSPGQSITISCTGTSSDVGGYNYVSWYQQHPGKAPKLMIYEGSKRPSGVSNRFSGSKSGNTASLTISGLQAEDEADYYCSSYTTRSTRVFGGGTKLTVLG', 'binds'),
  ('I012A06 (scFv) scFv: QVQLQESGPGVVKPSQTLSLTCTVSGVSISSDSYYWSWIRQPAGKGPEWIGRIYPTGSTNYNPSLKSRVTISVDTSKNQFSLQLTSVTAADTAVYYCARGRWDYDLLTGEHLGYYFDYWGRGTLVTVSSGGGGSGGGGSGGGGSALSSELTQDPAVSVALGQTVRITCQGDTLRNYYASWYQQKPGQAPVLVIHSRNNRPSGIPDRFSGSSSGTTASLTITGSQAEDEADYYCNSRDSSGNVIFGGGTKLTVLG', 'binds'),
  ('I007H08 (scFv) scFv: QVQLQQSGPGLVKPSQILSLTCAISGDSVASNGAAWNWIRQSPSRGLEWLGRTYYRSKWYVDYAVSVKSRITINPDTSKNQFSLQLNSVTPEDTAVYYCARDRYDILTGYYYYGMDVWGQGTMVTVSSGGGGSGGGGSGGGGSQSALTQPASVSGSRGQSITISCTGTTGDVGGYDYVSWYQQHPGKAPKLLIYGNSNRPSGVPDRFSASKSGNTASLTISGLQAEDEADYFCNTYAPPGIIMFGGGTKLTVLG', 'binds');

From: patent US20110293610A1
